Known IC50 of a selection of molecules
Target: CDK1/cyclin B (Homo sapiens (Human))
Sequence (P06493 whole entry, species assumed): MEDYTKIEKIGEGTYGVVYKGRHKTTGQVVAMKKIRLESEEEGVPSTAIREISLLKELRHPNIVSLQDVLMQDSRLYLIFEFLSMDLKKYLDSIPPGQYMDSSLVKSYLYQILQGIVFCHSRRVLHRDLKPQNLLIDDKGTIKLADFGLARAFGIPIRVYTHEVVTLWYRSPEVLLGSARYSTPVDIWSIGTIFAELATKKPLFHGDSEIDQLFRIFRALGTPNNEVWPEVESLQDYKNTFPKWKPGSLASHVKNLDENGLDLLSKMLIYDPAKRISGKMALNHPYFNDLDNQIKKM
Sequence (P14635 whole entry partner, species assumed): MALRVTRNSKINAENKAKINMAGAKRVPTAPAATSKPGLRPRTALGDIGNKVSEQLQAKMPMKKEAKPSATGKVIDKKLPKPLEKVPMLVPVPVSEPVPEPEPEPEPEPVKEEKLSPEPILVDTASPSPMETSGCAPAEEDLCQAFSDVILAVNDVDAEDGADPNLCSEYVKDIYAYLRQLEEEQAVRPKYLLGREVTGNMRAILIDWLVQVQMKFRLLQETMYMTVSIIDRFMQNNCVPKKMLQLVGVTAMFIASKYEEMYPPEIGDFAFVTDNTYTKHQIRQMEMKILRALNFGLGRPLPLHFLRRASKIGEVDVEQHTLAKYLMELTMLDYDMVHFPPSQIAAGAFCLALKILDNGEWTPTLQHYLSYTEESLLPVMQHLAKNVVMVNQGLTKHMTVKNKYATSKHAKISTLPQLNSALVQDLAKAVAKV
Assay: CDK1/cyclin B enzymatic activity assay (IMAP-FP)
Assay type: biochemical
Details: […] CDK1/cyclin B, 100 nM Tamra Histone-H1 peptide, 20 μM ATP, 120 min at room temperature; read-out: Biochemical CDK1 enzyme IC50

- molecule: "CN(C)C(=O)c1cc2cnc(Nc3ccc(N4CC5CNCC5CC4=O)cn3)nc2n1C1CCCC1 (racemic)"
  IC50: "> 15 µM"
- molecule: "CN(C)C(=O)c1cc2cnc(Nc3ccc(C(=O)N4CC5CCC(C4)N5)cn3)nc2n1C1CCCOC1 (centres unmarked)"
  IC50: "> 15 µM"
- molecule: "CN(C)C(=O)c1cc2cnc(Nc3ccc(N4CC5(CC4=O)CC4CCC(C5)N4)cn3)nc2n1C1CCCC1 (centres unmarked)"
  IC50: "> 15 µM"
- molecule: "CN(C)C(=O)c1cc2cnc(Nc3ccc(N4C[C@@H]5CNC[C@@H]5CC4=O)cn3)nc2n1C1CCCC1 (stereo in doubt)"
  IC50: "25.1 µM"
- molecule: "CNC(=O)c1cc2cnc(Nc3ccc(C(=O)N4CC5CCC(C4)N5)cn3)nc2n1C1CCCC1"
  IC50: "> 15 µM"
- molecule: "CN(C)C(=O)c1cc2cnc(Nc3ccc(C(=O)N4CC5CCC(C4)N5C)cn3)nc2n1C1CCCC1"
  IC50: "12.8 µM"
- molecule: "CN(C)C(=O)c1cc2cnc(Nc3ccc(N4C[C@H]5CC[C@@H](CC4=O)N5)cn3)nc2n1C1CCCCC1"
  IC50: "13.3 µM"
- molecule: "CN(C)C(=O)c1cc2cnc(Nc3ccc(N4CC5(CC6CCC(C5)N6)OC4=O)cn3)nc2n1C1CCCC1 (centres unmarked)"
  IC50: "> 15 µM"
- molecule: "CCOC(=O)N1C2CCC1CN(C(=O)c1ccc(Nc3ncc4cc(C(=O)N(C)C)n(C5CCCC5)c4n3)nc1)C2"
  IC50: "> 15 µM"
- molecule: "CN(C)C(=O)c1cc2cnc(Nc3ccc(N4C[C@@]5(CCCNC5)OC4=O)cn3)nc2n1C1CCCC1"
  IC50: "> 15 µM"
- molecule: "CN(C)C(=O)c1cc2cnc(Nc3ccc(N4CC5COCC(CC4=O)N5)cn3)nc2n1C1CCCC1 (centres unmarked)"
  IC50: "> 15 µM"
- molecule: "CN(C)C(=O)c1cc2cnc(Nc3ccc(N4C[C@@H]5CNC[C@@H]5CC4=O)cn3)nc2n1C1CCCCCC1 (stereo in doubt)"
  IC50: "6.48 µM"
- molecule: "CN(C)C(=O)c1cc2cnc(Nc3ccc(N4CCN5CCCCC5C4=O)cn3)nc2n1C1CCCCC1 (centres unmarked)"
  IC50: "> 15 µM"
- molecule: "CN(C)C(=O)c1cc2cnc(Nc3ccc(C(=O)N4CC5CCC(C4)N5)cn3)nc2n1C1CCN(C(C)(C)C)CC1"
  IC50: "> 15 µM"
